molecular target: Recombinant human c-KIT kinase (Homo sapiens (Human)); experiment: c-KIT kinase chemiluminescence assay (ADP-Glo); conditions: ATP 50 μM
Sequence (P10721 26-976): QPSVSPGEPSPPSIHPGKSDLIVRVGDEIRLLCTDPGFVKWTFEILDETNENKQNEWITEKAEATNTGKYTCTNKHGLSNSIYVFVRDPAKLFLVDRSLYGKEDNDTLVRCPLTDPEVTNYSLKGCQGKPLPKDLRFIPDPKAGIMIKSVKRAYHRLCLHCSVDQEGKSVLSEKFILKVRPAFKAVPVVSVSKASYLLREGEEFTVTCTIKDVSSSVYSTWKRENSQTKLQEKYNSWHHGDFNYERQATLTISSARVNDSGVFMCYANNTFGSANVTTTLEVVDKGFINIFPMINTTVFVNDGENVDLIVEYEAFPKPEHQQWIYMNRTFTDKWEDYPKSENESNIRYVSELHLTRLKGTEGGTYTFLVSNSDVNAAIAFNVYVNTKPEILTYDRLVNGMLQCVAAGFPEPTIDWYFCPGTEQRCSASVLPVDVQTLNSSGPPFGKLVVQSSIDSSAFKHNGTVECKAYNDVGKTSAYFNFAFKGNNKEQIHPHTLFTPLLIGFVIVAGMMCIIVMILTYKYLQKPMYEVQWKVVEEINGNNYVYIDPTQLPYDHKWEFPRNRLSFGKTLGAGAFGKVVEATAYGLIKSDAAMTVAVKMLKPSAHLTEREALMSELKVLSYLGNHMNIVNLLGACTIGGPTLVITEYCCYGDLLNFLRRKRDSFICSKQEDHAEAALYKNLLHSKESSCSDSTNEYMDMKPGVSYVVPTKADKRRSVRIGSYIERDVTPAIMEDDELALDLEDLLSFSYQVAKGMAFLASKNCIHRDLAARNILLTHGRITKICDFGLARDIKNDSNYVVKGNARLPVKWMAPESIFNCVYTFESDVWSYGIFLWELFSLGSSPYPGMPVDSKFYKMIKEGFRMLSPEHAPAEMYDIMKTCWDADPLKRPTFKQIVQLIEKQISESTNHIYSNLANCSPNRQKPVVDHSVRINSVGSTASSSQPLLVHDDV
PARAMETER_MEASURED: IC50

Task: So what IC50 did "Cc1ccc(-c2noc([C@H]3C[C@@H]3F)n2)cc1NC(=O)c1cn[nH]c1-c1ccccc1" get with Recombinant human c-KIT kinase (Homo sapiens (Human))?
Output: 100 to 1000 nM

Task: Lab request: please report IC50 under test system Recombinant human c-KIT kinase (Homo sapiens (Human)) for "Cc1ccc(-c2noc([C@H]3C[C@@H]3F)n2)cc1NC(=O)c1cnn2ccc(O[C@H]3CCOC3)cc12"
Output: < 100 nM

Task: # returns recorded IC50 (system: Recombinant human c-KIT kinase (Homo sapiens (Human))) for "Cc1ccc(-c2noc([C@H]3C[C@@H]3F)n2)cc1NC(=O)c1cnn(-c2ccccc2)n1"
Output: > 1000 nM

Task: Give recorded IC50 with Recombinant human c-KIT kinase (Homo sapiens (Human)) for the following molecule: "Cc1ccc(-c2noc([C@H]3C[C@@H]3F)n2)cc1NC(=O)c1cnn2cc(-c3cn(CC(C)(C)O)nn3)ccc12"
Output: < 100 nM

Task: Requested read-out IC50, target or system Recombinant human c-KIT kinase (Homo sapiens (Human)), entry "Cc1ccc(-c2ccc(C3CC3)cn2)cc1NC(=O)c1cnn2ccc(N3CC4(COC4)C3)cc12"
Output: < 100 nM

Task: IC50 of "Cc1ccc(-c2noc([C@H]3C[C@@H]3F)n2)cc1NC(=O)c1cnn2ccc(C3CC3)cc12" on Recombinant human c-KIT kinase (Homo sapiens (Human))?
Output: < 100 nM

Task: Fill in the recorded IC50 for this molecule, with Recombinant human c-KIT kinase (Homo sapiens (Human)) as test system: "Cc1sc(-c2noc([C@H]3C[C@@H]3F)n2)cc1NC(=O)c1cnn2ccc(N3CC4(C3)CC(O)(C(F)F)C4)cc12"
Output: 100 to 1000 nM

Task: Requested read-out IC50, target or system Recombinant human c-KIT kinase (Homo sapiens (Human)), entry "Cc1nnc(N2CC(c3nc(-c4cnc(C)c(NC(=O)c5cnn6ccc(N7CC8(COC8)C7)cc56)c4)no3)C2)o1"
Output: > 1000 nM

Task: Give IC50 (Recombinant human c-KIT kinase (Homo sapiens (Human))) of the following molecule: "Cc1ccc(-c2noc([C@H]3CC3(F)F)n2)cc1NC(=O)c1cnn2ccc(N3CC4(COC4)C3)cc12"
Output: 100 to 1000 nM

Task: Reported IC50 for Recombinant human c-KIT kinase (Homo sapiens (Human)), given "Cc1ccc(-c2noc([C@H]3C[C@H]3C(F)F)n2)cc1NC(=O)c1cnn2ccc(N3CC4(COC4)C3)cc12" ?
Output: < 100 nM

Task: Provide value of IC50 for this record tested with Recombinant human c-KIT kinase (Homo sapiens (Human)): "CC(=O)N1CC2(CC(c3nc(-c4cnc(C)c(NC(=O)c5cnn6ccc(N7CC8(COC8)C7)cc56)c4)no3)C2)C1"
Output: > 1000 nM

Task: Please provide the recorded IC50 for "Cc1ccc(-c2noc([C@H]3C[C@@H]3F)n2)cc1NC(=O)c1cnn2ccc(-c3cn(CCO)nn3)cc12" , tested on Recombinant human c-KIT kinase (Homo sapiens (Human)).
Output: 100 to 1000 nM

Task: What measured IC50 is associated with "Cc1ccc(-c2noc([C@H]3C[C@@H]3F)n2)cc1NC(=O)c1cnc(-c2cccc3cn[nH]c23)o1" on Recombinant human c-KIT kinase (Homo sapiens (Human))?
Output: < 100 nM

Task: Identify the measured IC50 of "Cc1ccc(-c2noc([C@H]3C[C@@H]3F)n2)cc1NC(=O)c1cnn2ccc(-n3cc(N)cn3)cc12" for Recombinant human c-KIT kinase (Homo sapiens (Human)).
Output: < 100 nM

Task: Recall the recorded IC50 for "Cc1ccc(-c2noc([C@H]3C[C@@H]3F)n2)cc1NC(=O)c1cnn2cc(Cl)ccc12" with Recombinant human c-KIT kinase (Homo sapiens (Human)) and state it.
Output: < 100 nM

Task: What value of IC50 on Recombinant human c-KIT kinase (Homo sapiens (Human)) does "Cc1ccc(-c2noc([C@H]3C[C@@H]3F)n2)cc1NC(=O)c1cnn2cc(-c3cncnc3)ccc12" have?
Output: 100 to 1000 nM

Task: Form field: IC50 recorded for "Cc1ccc(-c2noc(N3CCOCC3)n2)cc1NC(=O)c1cnn2ccc(N3CC4(C3)CC(O)(C(F)F)C4)cc12" with Recombinant human c-KIT kinase (Homo sapiens (Human)) (enter value)
Output: 100 to 1000 nM

Task: Under Recombinant human c-KIT kinase (Homo sapiens (Human)): IC50 value of "Cc1ccc(-c2noc(C3CN(C(=O)C4CC4)C3)n2)cc1NC(=O)c1cnn2ccc(N3CC4(COC4)C3)cc12" ?
Output: 100 to 1000 nM

Task: Enter reported IC50 observed with Recombinant human c-KIT kinase (Homo sapiens (Human)) for "Cc1ccc(-c2noc([C@H]3C[C@@H]3F)n2)cc1NC(=O)c1cnn2ccc(N3CC4(C3)CC4(F)F)cc12"
Output: < 100 nM

Task: Test system Recombinant human c-KIT kinase (Homo sapiens (Human)); read-out IC50; what value for "O=C(Nc1cc(-c2ccc(C3CC3)cn2)ccc1Cl)c1cnn2ccc(N3CC4(COC4)C3)cc12" ?
Output: > 1000 nM

Task: Lab request: please report IC50 under test system Recombinant human c-KIT kinase (Homo sapiens (Human)) for "Cc1ccc(-c2noc([C@H]3C[C@@H]3F)n2)cc1NC(=O)c1cnn2ccc(-c3ccc(F)cc3)cc12"
Output: 100 to 1000 nM

Task: What is its IC50 for Recombinant human c-KIT kinase (Homo sapiens (Human))? Entry: "COC(=O)N1CC(c2nc(-c3cnc(C)c(NC(=O)c4cnn5cc(-c6cn(C(F)F)nn6)ccc45)c3)no2)C1"
Output: 100 to 1000 nM

Task: Enter reported IC50 observed with Recombinant human c-KIT kinase (Homo sapiens (Human)) for "Cc1ccc(-c2noc([C@H]3C[C@@H]3F)n2)cc1NC(=O)c1cnn2ccc(Nc3cn[nH]c3)cc12"
Output: < 100 nM

Task: Which IC50 is reported with Recombinant human c-KIT kinase (Homo sapiens (Human)) for this entry: "Cc1ccc(-c2noc([C@H]3C[C@@H]3F)n2)cc1NC(=O)c1cnn2ccc(N3CC(C(F)(F)F)C3)cc12" ?
Output: < 100 nM

Task: What measured IC50 is associated with "Cc1ccc(-c2nccc(C3CC3)n2)cc1NC(=O)c1cnn2ccc(N3CC4(COC4)C3)cc12" on Recombinant human c-KIT kinase (Homo sapiens (Human))?
Output: 100 to 1000 nM

Task: Request - read-out IC50 | tested on Recombinant human c-KIT kinase (Homo sapiens (Human)) | molecule "Cc1ncc(-c2noc([C@H]3C[C@@H](OC(F)(F)F)C3)n2)cc1NC(=O)c1cnn2cc(-c3cn(CCO)nn3)ccc12"
Output: < 100 nM

Task: Could you share what IC50 was measured for "COc1ccc(-n2cc(C(=O)Nc3cc(-c4noc([C@H]5C[C@@H]5F)n4)ccc3C)cn2)cc1" , tested on Recombinant human c-KIT kinase (Homo sapiens (Human))?
Output: 100 to 1000 nM

Task: Query the reported IC50 for Recombinant human c-KIT kinase (Homo sapiens (Human)); item: "Cc1ncc(-c2noc(C3CN(C(=O)OC(C)(C)C)C3)n2)cc1NC(=O)c1cnn2ccc(N3CC4(C3)CC(O)(C(F)F)C4)cc12"
Output: > 1000 nM
